- targetSystem: FGF receptor tyrosine kinase (human FGF-1 (flg)) (Homo sapiens, UniProt P11362)
- Construct: PCR primers are designed to amplify a fragment of DNA that codes for the intracellular tyrosine kinase domain
- Sequence (P11362 478-767 limits assumed): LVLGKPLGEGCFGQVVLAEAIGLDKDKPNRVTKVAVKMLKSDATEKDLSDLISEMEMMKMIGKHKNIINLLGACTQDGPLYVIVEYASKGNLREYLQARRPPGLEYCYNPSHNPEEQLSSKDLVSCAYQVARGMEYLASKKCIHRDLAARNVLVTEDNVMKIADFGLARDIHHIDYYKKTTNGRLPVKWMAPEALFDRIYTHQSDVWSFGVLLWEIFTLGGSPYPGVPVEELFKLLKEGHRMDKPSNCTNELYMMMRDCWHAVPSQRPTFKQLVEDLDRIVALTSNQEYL
- experiment: FGFr tyrosine kinase assay (poly glutamate-tyrosine phosphorylation)
- conditionInfo: Table 1; 10 minutes at 25° C.
pIC50: −log10 of the molar value. Structures can show the parent of a compound that is named as a salt.
readout: pIC50

Take a look at these entries with their results.
Need pIC50, item CC(=O)c1ccc2c(c1)ncn2-c1ccccc1 [Example 20, 5-Acetyl-1-phenylbenzimidazole]
4.85

Entry to check: COc1cc2ncn(-c3ccccc3)c2cc1OC [Example 46, Hydrochloride]
4.60

Entry to check: C=CC(=O)Nc1ccc2c(c1)ncn2-c1ccccc1 [Example 25, 5-Acrylamido-1-phenylbenzimidazole]
4.43

Entry to check: c1ccc(-n2cnc3cc(OCCCCN4CCOCC4)ccc32)cc1 [Example 59, Dihydrochloride]
4.92

Entry to check: CCOc1ccc2c(c1)ncn2-c1ccccc1 [Example 28, Hydrochloride]
4.59

1 = COc1cc2ncn(-c3ccccc3)c2cc1CO [Example 53, Hydrochloride]
2 = COc1c(O)ccc2c1ncn2-c1ccccc1 [Example 62, Hydrochloride]
When their pIC50 values are compared, which is larger, 1 or 2 ? # respond with the chosen item's label
1

P = CCC(=O)Nc1ccc2c(c1)ncn2-c1ccccc1 [Example 24, Hydrochloride]
Q = Oc1ccc2c(ncn2-c2ccccc2)c1O [Example 61, Hydrochloride]
R = COC(=O)c1ccc2c(c1)ncn2-c1ccccc1 [Example 17]
# rank by pIC50, ascending (min first) Give me the labels in the order the question wants.
P, R, Q

I = NCCOc1ccc2c(c1)ncn2-c1ccccc1 [Example 35, Dihydrochloride]
II = COc1ccc2c(c1)ncn2-c1ccsc1 [Example 56, Hydrochloride]
III = c1ccc2c(c1)ncn2-c1ccncc1 [Example 10, dihydrochloride]
Hello, I need these entries ordered by pIC50, highest reading first. Thanks! Give me the labels in the order the question wants.
II, I, III
(II: 5.19, I: 4.57, III: 4.30)

1 = CCCOc1ccc2c(c1)ncn2-c1ccccc1 [Example 29, hydrochloride]
2 = COc1ccc2c(c1)ncn2-c1ccc(N)cc1 [Example 45, Dihydrochloride]
When their pIC50 values are compared, which is larger, 1 or 2 ? # respond with the chosen item's label
2

----------
- System: PDGF receptor autophosphorylation in rat aorta smooth muscle cells
- experiment: PDGF Receptor Autophosphorylation Assay in rat aorta smooth muscle cells
- Assay type: cell-based
- conditionInfo: Table 2, PDGF-BB 30 ng/mL, 2 hours pre-incubation, read-out: IC50, inhibition of PDGF-stimulated receptor autophosphorylation
Where a name gives a salt, the structure may show the parent alone.
readout: IC50 (nM)

Take a look at these entries with their results.
Need IC50, item COc1ccc2c(c1)ncn2-c1ccccc1 [Example 13, Hydrochloride]
2000

Entry to check: c1ccc(-n2cnc3cc(OCCN4CCOCC4)ccc32)cc1 [Example 38, Dihydrochloride]
700

P = c1ccc(-n2cnc3cc(OCCCCN4CCOCC4)ccc32)cc1 [Example 59, Dihydrochloride]
Q = COc1ccc2c(c1)ncn2-c1ccc(N)cc1 [Example 45, Dihydrochloride]
Would you kindly point out which of P and Q has the smaller IC50 figure? # respond with the chosen item's label
P

----------
Measured pIC50, listed per entry.
- targetSystem: Human EGF receptor tyrosine kinase (Homo sapiens)
- Construct: Human EGF receptor tyrosine kinase is isolated from A431 human epidermoid carcinoma cells; endogenous in cells
- experiment: EGFr tyrosine kinase assay
- conditionInfo: Table 1; 10 μM ATP, 25° C., 10 minutes
pIC50: −log10 of the molar value. Where a name gives a salt, the structure may show the parent alone.

Take a look at these entries with their results.
Need pIC50, item COc1ccc2c(c1)ncn2-c1ccccc1 [Example 13, Hydrochloride]
> 4.30

Entry to check: `c1ccc(-n2cnc3ccccc32)cc1`
< 4.30

Entry to check: Oc1ccc2ncn(-c3ccccc3)c2c1 [Example 41, Hydrochloride]
< 4.30

Entry to check: `O=Cc1ccc2c(c1)ncn2-c1ccccc1`
> 4.30

Next:
Need pIC50, item COc1ccc2c(c1)ncn2-c1ccc(N)cc1 [Example 45, Dihydrochloride]
> 4.40

Entry to check: `Nc1ccc2c(c1)ncn2-c1ccccc1`
< 4.30

Entry to check: CN(C)CCCOc1ccc2c(c1)ncn2-c1ccccc1 [Example 37, Dihydrochloride]
< 4.40

Entry to check: Oc1ccc2c(c1)ncn2-c1ccccc1 [Example 14, 5-Hydroxy-1-phenylbenzimidazole]
< 4.30

Entry to check: c1ccc(-n2cnc3cc(OCCN4CCOCC4)ccc32)cc1 [Example 38, Dihydrochloride]
< 4.40

----------
- targetSystem: FGF receptor tyrosine kinase (human FGF-1 (flg)) (Homo sapiens)
- Construct: PCR primers are designed to amplify a fragment of DNA that codes for the intracellular tyrosine kinase domain
- experiment: FGFr tyrosine kinase assay (poly glutamate-tyrosine phosphorylation)
- conditionInfo: Table 1; 10 minutes at 25° C.
- Method: Platelet Derived Growth Factor Receptor (PDGFr) and Fibroblast Growth Factor Receptor (FGFr) Full length cDNAs for the mouse PDGF-β and human FGF-1 (flg) receptor tyrosine kinases were obtained from J. Escobedo and are prepared as described in J. Biol. Chem., 262: 1482-1487 (1991). […] Filters are washed 3 times with 15% TCA containing 100 mM sodium pyrophosphate and the radioactivity retained on the filters counted in a Wallac 1250 Betaplate reader. […]
pIC50: −log10 of the molar value. Counter-ions that a name gives are not always drawn.
readout: pIC50

Take a look at these entries with their results.
Which measured pIC50 belongs to `CC(=O)Oc1ccc2c(c1)ncn2-c1ccccc1` , tested on FGF receptor tyrosine kinase (human FGF-1 (flg)) (Homo sapiens)?
4.59

Entry to check: c1ccc(-n2cnc3cnccc32)cc1 [Example 22, Hydrochloride]
4.31

Entry to check: `Nc1ccc2c(c1)ncn2-c1ccccc1`
4.44

Entry to check: C=CCOc1ccc2c(c1)ncn2-c1ccccc1 [Example 32, Hydrochloride]
4.46

Entry to check: c1ccc(-n2cnc3cc(OCCCN4CCOCC4)ccc32)cc1 [Example 39, Dihydrochloride]
5.01

Entry to check: COC(=O)c1cc2c(cc1OC)ncn2-c1ccccc1 [Example 51, Hydrochloride]
4.30

P = c1ccc(-n2cnc3cc(OCCN4CCOCC4)ccc32)cc1 [Example 38, Dihydrochloride]
Q = CN(C)CCCCOc1ccc2c(c1)ncn2-c1ccccc1 [Example 58, Dihydrochloride]
When their pIC50 values are compared, which is larger, P or Q ? # respond with the chosen item's label
Q
(Q: 5.22, P: 4.55)

A = O=Cc1ccc2c(c1)ncn2-c1ccccc1
B = O=C(O)c1ccc2c(c1)ncn2-c1ccccc1 [Example 16, Hydrochloride]
When their pIC50 values are compared, which is larger, A or B ? # respond with the chosen item's label
B

P = Oc1cccc(-n2cnc3ccccc32)c1 [Example 2, Hydrochloride]
Q = Oc1ccc(-n2cnc3ccccc32)cc1 [Example 6, Hydrochloride]
R = O=C(O)c1cc2c(cc1O)ncn2-c1ccccc1 [Example 52, Hydrobromide]
# rank by pIC50, ascending (min first) Give me the labels in the order the question wants.
P, R, Q

----------
- System: PDGF receptor autophosphorylation in rat aorta smooth muscle cells
- experiment: PDGF Receptor Autophosphorylation Assay in rat aorta smooth muscle cells
- Format: cell-based
- conditionInfo: Table 2, PDGF-BB 30 ng/mL, 2 hours pre-incubation, read-out: IC50, inhibition of PDGF-stimulated receptor autophosphorylation
Counter-ions that a name gives are not always drawn.
readout: IC50

Need IC50, item `COc1ccc2ncn(-c3ccccc3)c2c1`
> 10 µM

Entry to check: Nc1ccc(-n2cnc3ccccc32)cc1 [Example 8, Dihydrochloride]
> 10 µM

Pending molecule:
Need IC50, item Oc1cccc2c1ncn2-c1ccccc1 [Example 11, Hydrochloride]
> 10 µM

----------
- targetSystem: Human EGF receptor tyrosine kinase (Homo sapiens, UniProt P00533)
- Construct: Human EGF receptor tyrosine kinase is isolated from A431 human epidermoid carcinoma cells; endogenous in cells
- Sequence (P00533 25-1210): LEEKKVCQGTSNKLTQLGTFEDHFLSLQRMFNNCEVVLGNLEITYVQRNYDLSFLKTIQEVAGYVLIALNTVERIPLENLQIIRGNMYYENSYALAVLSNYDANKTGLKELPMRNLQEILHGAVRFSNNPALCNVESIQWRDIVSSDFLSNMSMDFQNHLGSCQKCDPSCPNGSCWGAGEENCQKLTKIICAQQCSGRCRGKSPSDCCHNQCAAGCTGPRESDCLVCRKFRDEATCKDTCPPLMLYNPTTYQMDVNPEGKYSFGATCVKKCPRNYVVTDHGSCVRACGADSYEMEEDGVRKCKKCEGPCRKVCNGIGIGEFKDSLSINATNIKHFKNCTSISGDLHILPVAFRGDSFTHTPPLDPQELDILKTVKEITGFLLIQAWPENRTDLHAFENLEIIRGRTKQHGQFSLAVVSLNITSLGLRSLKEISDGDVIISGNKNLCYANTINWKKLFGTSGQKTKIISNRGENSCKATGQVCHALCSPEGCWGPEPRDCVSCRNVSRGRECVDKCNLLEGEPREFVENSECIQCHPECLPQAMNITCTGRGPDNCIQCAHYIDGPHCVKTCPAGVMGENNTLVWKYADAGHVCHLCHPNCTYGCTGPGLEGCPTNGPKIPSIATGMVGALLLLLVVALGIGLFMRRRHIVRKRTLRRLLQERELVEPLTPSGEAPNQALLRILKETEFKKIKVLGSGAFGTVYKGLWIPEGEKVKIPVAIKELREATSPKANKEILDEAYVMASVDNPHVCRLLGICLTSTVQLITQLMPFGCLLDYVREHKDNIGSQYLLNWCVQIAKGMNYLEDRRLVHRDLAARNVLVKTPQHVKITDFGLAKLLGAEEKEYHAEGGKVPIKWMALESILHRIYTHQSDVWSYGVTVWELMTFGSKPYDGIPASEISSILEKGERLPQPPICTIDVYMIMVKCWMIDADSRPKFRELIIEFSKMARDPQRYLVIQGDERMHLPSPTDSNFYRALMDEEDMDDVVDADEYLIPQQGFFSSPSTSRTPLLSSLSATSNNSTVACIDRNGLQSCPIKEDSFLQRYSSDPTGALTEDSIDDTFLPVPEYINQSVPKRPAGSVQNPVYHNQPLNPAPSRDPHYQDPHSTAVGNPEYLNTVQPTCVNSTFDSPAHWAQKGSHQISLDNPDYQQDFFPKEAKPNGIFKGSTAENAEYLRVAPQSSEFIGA
- experiment: EGFr tyrosine kinase assay
- conditionInfo: Table 1; 10 μM ATP, 25° C., 10 minutes
Structures can show the parent of a compound that is named as a salt.
readout: IC50

Take a look at these entries with their results.
Need IC50, item O=C(O)c1ccc2c(c1)ncn2-c1ccccc1 [Example 16, Hydrochloride]
> 50 µM

Entry to check: `CC(=O)Oc1ccc2c(c1)ncn2-c1ccccc1`
> 50 µM

Entry to check: `Nc1cccc(-n2cnc3ccccc32)c1`
> 50 µM

Entry to check: Cc1ccc2c(c1)ncn2-c1ccccc1 [Example 12, Hydrochloride]
50 µM

Pending molecule:
Need IC50, item OCc1ccc2c(c1)ncn2-c1ccccc1 [Example 26, 5-(Hydroxymethyl)-1-phenylbenzimidazole]
< 50 µM

----------
- targetSystem: FGF receptor tyrosine kinase (human FGF-1 (flg)) (Homo sapiens)
- Construct: PCR primers are designed to amplify a fragment of DNA that codes for the intracellular tyrosine kinase domain
- experiment: FGFr tyrosine kinase assay (poly glutamate-tyrosine phosphorylation)
- conditionInfo: Table 1; 10 minutes at 25° C.
Structures can show the parent of a compound that is named as a salt.
readout: IC50 (µM)

Which measured IC50 belongs to COc1ccc2c(c1)ncn2-c1ccccc1 [Example 13, Hydrochloride] , tested on FGF receptor tyrosine kinase (human FGF-1 (flg)) (Homo sapiens)?
22

I = OCCCCOc1ccc2c(c1)ncn2-c1ccccc1 [Example 57, Hydrochloride]
II = CN(C)CCCOc1ccc2c(c1)ncn2-c1ccccc1 [Example 37, Dihydrochloride]
When their IC50 values are compared, which is larger, I or II ? # respond with the chosen item's label
I
(I: 25 µM, II: 4.1 µM)
